# Test system: Staphylocoques Pénicilline résistants
# assay_overview: In vitro activity, dilution method in solid medium (MIC)
# Format: cell-based
# experimental_setup: Staphylocoques Pénicilline résistants (22 souches); geometric mean of all MICs of the strain group; 24 h incubation at 37°C; read-out: concentrations minimales inhibitrices (CMI), moyennes géométriques

molecule	target_or_system	MIC [µg/mL]
COC(=O)C(O/N=C(\C(=O)N[C@@H]1C(=O)N2C(C(=O)[O-])=C(/C=C/C[n+]3cccc4ccccc43)CS[C@H]12)c1csc(N)n1)c1cc(O)c(O)c(F)c1 (stereo partly drawn) [Exemple 8]	Staphylocoques Pénicilline résistants	0.3
Nc1nc(/C(=N/OCc2cc(F)c(O)c(O)c2F)C(=O)N[C@@H]2C(=O)N3C(C(=O)[O-])=C(/C=C/C[n+]4cccc5ccccc54)CS[C@H]23)cs1 [Exemple 4]	Staphylocoques Pénicilline résistants	0.37
Nc1nc(/C(=N/OCc2cc(Cl)c(O)c(O)c2Cl)C(=O)N[C@@H]2C(=O)N3C(C(=O)[O-])=C(/C=C/C[n+]4cccc5ccccc54)CS[C@H]23)cs1 [Exemple 1]	Staphylocoques Pénicilline résistants	0.78
